Target: CDK9 (Homo sapiens, UniProt P50750)
Sequence (P50750 whole entry): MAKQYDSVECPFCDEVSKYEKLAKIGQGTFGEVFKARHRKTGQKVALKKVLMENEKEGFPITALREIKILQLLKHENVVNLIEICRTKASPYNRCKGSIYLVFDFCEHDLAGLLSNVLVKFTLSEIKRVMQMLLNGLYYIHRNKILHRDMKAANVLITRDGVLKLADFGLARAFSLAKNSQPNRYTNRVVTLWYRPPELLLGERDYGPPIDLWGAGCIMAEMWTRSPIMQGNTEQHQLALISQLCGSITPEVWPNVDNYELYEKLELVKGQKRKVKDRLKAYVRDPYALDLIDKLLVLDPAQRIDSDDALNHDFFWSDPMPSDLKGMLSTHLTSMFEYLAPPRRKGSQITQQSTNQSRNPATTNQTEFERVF
Sequence (O60563 whole entry partner): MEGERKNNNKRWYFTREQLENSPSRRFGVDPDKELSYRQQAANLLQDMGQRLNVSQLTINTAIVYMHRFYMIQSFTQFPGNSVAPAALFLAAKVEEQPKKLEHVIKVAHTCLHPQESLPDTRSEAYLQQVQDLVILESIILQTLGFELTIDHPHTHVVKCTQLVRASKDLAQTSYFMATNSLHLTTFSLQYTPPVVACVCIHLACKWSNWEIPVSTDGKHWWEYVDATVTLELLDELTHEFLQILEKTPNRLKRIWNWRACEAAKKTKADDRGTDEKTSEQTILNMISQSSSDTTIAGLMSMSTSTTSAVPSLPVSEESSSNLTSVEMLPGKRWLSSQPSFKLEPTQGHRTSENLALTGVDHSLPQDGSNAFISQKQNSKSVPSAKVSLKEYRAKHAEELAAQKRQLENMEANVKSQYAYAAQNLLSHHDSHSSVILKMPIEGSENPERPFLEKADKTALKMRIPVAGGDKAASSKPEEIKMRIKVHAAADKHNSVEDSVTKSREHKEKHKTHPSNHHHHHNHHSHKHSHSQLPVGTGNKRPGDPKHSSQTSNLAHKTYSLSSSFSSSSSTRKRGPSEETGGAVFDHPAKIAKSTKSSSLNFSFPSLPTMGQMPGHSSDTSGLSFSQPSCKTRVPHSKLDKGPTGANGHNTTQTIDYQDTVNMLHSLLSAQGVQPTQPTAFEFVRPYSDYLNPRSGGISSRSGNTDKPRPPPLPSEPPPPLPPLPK
Assay: CDK9 kinase activity inhibition (ADP-Glo)
Type: biochemical
Conditions: 10 μM ATP, 2 h at room temperature
Range-based classes on measured IC50: low = under 9 nM, mid = from 9 nM up to 100 nM, high = 100 nM and over

INSERT INTO measurements (compound, category_label) VALUES
  ('CC(=O)NC[C@H]1CCC(F)(F)CN1C(=O)c1nc(Nc2cc3[nH]ccc3cn2)ccc1C', 'high'),
  ('CC(=O)NC[C@H]1CCCCN1C(=O)c1nc(Nc2cc(OC(F)(F)F)ccn2)ccc1C', 'mid'),
  ('CC(=O)NC[C@H]1CCC(F)(F)CN1C(=O)c1cccc(Nc2cc(OC(F)(F)F)ccn2)n1', 'low'),
  ('CCOc1ccnc(Nc2ccc(C)c(C(=O)N3CC(F)(F)CC[C@@H]3CN)n2)c1', 'mid'),
  ('CC(=O)NC[C@H]1CCC(F)(F)CN1C(=O)c1nc(Nc2cnccn2)ccc1C', 'mid'),
  ('CC(=O)NCC1CCC(F)(F)CN1C(=O)c1nc(Nc2cc(OC(F)(F)F)ccn2)ccc1C (stereo not shown)', 'mid'),
  ('CNC(=O)c1ccnc(Nc2ccc(C)c(C(=O)N3CC(F)(F)CC[C@@H]3CNC(C)=O)n2)c1', 'mid'),
  ('CC(=O)NC[C@H]1CCC(F)(F)CN1C(=O)c1nc(Nc2cc(OC(F)(F)F)ccn2)ccc1F', 'low'),
  ('CC(=O)N[C@H]1CN(C(=O)c2nc(Nc3cc(OC(F)(F)F)ccn3)ccc2C)CC(F)(F)C1', 'high'),
  ('CC(=O)NC[C@H]1CCC(F)(F)CN1C(=O)c1nc(Nc2cc(OC(F)(F)F)ccn2)ccc1Cl', 'low'),
  ('CC(=O)NC[C@H]1CCC(F)(F)CN1Cc1nc(Nc2cc(OC(F)(F)F)ccn2)ccc1C', 'high'),
  ('COC(=O)c1ccnc(Nc2ccc(C)c(C(=O)N3CC(F)(F)CC[C@@H]3CNC(C)=O)n2)c1', 'low'),
  ('CC(=O)NC[C@H]1CCC(F)(F)CN1C(=O)c1nc(Nc2cc(OC(F)F)ccn2)ccc1C', 'low'),
  ('CCOc1ccnc(Nc2ccc(C)c(C(=O)N3CC(F)(F)CC[C@@H]3CNC(C)=O)n2)c1', 'low'),
  ('CC(=O)NC[C@H]1CCC(F)(F)CN1S(=O)(=O)c1cc(Nc2cc(OC(F)(F)F)ccn2)ccc1C', 'high'),
  ('CC(C)(C)OC(=O)NC[C@H]1CCC(F)(F)CN1C(=O)c1nc(Nc2cc(OC(F)(F)F)ccn2)ccc1F', 'high'),
  ('CCNC(=O)C1CCC(F)(F)CN1C(=O)c1nc(Nc2cc(OC(F)(F)F)ccn2)ccc1C (stereo not shown)', 'high'),
  ('CC(=O)NC[C@H]1CCC(F)(F)CN1C(=O)c1nc(Nc2cc(-c3cnn4c3CCC4)c(F)cn2)ccc1C', 'high'),
  ('CC(=O)NC[C@H]1CCC(F)(F)CN1C(=O)c1nc(Nc2cc(OC(F)(F)F)ccn2)ccc1C', 'low'),
  ('CC(=O)NC[C@H]1CCC(F)(F)CN1C(=O)c1nc(Nc2cc(-c3cnn4c3CCC4)ccn2)ccc1C', 'mid'),
  ('Cc1ccc(Nc2cc(OC(F)(F)F)ccn2)nc1C(=O)N1CCCC(F)(F)CC1', 'high'),
  ('NC[C@H]1CCC(F)(F)CN1C(=O)c1nc(Nc2cc(OC(F)(F)F)ccn2)ccc1F', 'low'),
  ('CC(=O)N[C@@H]1CN(C(=O)c2nc(Nc3cc(OC(F)(F)F)ccn3)ccc2C)CC(F)(F)C1', 'mid'),
  ('Cc1ccc(Nc2cc(OC(F)(F)F)ccn2)nc1C(=O)N1CC(F)(F)CCC1C(=O)N1CCCC1 (stereo not shown)', 'high'),
  ('CC(=O)NC[C@H]1CCC(F)(F)CN1C(=O)c1nc(Nc2ccncn2)ccc1C', 'high'),
  ('CC(=O)NC[C@H]1CCC(F)(F)CN1C(=O)c1nc(Nc2cc(C3CCCC3)ccn2)ccc1C', 'mid'),
  ('CC(=O)NC[C@H]1CCC(F)(F)CN1C(=O)c1nc(Nc2ncccc2OC(F)(F)F)ccc1C', 'high'),
  ('CC(=O)N[C@@H]1C[C@H](NC(=O)c2nc(Nc3cc(OC(F)(F)F)ccn3)ccc2C)CC(F)(F)C1', 'high'),
  ('CC(=O)NC[C@H]1CCC(F)(F)CN1C(=O)c1cc(Nc2cc(OC(F)(F)F)ccn2)ncc1C', 'high');

The origin of these recorded values is patent US12729192B2.
